- MEASURED_ON: HIV-1 Tat (Human immunodeficiency virus 1, UniProt P04608 P04608:1-86)
- METHOD_SUMMARY: filter; D1/2 680 nM; no complex in EMSA
- MEASUREMENT_CONTEXT: stem-loop, upper stem disrupted
pKd: −log10 of the molar value.

BINDER: TAR G28 to C28 (ssRNA) RNA: GGGUCUCUCUGGUUAGACCAGAUUUGACCCUGGGAGCUCUCUGGCUAACUAGGGAACCC
pKd: < 7.00
